Target: rat histamine H3 receptor (Rattus norvegicus, UniProt Q9QYN8)
Construct: encoding the entire 445-amino-acid rat histamine H3 receptor; expressed in transfected cells
Sequence (Q9QYN8 whole entry): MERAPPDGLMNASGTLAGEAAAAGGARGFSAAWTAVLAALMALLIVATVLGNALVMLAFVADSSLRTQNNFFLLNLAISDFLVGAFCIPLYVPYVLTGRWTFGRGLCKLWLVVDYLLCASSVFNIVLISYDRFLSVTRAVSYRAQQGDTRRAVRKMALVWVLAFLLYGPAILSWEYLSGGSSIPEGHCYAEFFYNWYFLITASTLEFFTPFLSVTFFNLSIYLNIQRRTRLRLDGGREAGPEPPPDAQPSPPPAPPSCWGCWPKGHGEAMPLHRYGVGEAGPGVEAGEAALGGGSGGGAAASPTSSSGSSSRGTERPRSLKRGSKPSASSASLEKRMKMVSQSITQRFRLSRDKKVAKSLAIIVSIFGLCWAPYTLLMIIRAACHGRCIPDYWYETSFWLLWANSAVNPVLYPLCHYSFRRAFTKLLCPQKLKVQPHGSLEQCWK
Experiment: Rat H3 radioligand binding ([3H]-N-alpha-methylhistamine, SPA)
Quick list: Ki per entry.
assay endpoint: Ki

>>> reported("CC1CCCN1CCCOc1ccc(C(=O)C(C)N2CCOCC2)cc1 (centres unmarked)")
"0.1 to 100 nM"
>>> reported("C[C@H]1CCCN1CCCOc1ccc(C(=O)CN2CCOCC2)cc1")
"501 to 1000 nM"
>>> reported("CC(C(=O)c1ccc(OCCCN2CCC[C@H]2C)cc1)N1CCOCC1 (some centres unmarked)")
"101 to 500 nM"
>>> reported("C[C@@H]1CCCN1CCCOc1ccc(C(=O)CN2CCOCC2)cc1")
"0.1 to 100 nM"
>>> reported("CC1CCCN1CCCOc1ccc(C(=O)CN2CCOCC2)cc1 (centres unmarked)")
"0.1 to 100 nM"

----------
Target: rat histamine H3 receptor (Rattus norvegicus, UniProt Q9QYN8)
Construct: encoding the entire 445-amino-acid rat histamine H3 receptor; expressed in transfected cells
Assay: Rat H3 radioligand binding ([3H]-N-alpha-methylhistamine, SPA)
Conditions: membranes of CHO-A3 cells expressing rat H3; [3H]-N-alpha-methylhistamine; read-out: Rat H3 Ki
Protocol: The rat H3 receptor cDNA was PCR amplified from reverse-transcribed RNA pooled from rat thalamus, hypothalamus, striatum and prefrontal cortex with a sequence corresponding to by #338-1672 of Genbank file #NM_053506, encoding the entire 445-amino-acid rat histamine H3 receptor. […] Membranes were resuspended in 50 mM Tris HCl (pH 7.4), 5 mM MgCl2, 0.1% BSA. […] Non-specific binding was determined in the presence of 10 μM clobenpropit. […]
assay endpoint: Ki

>>> reported("CC(C)N1CCC(Oc2ccc(C(=O)CN3CCOCC3)cc2)CC1")
"101 to 500 nM"
>>> reported("Cc1cc(C(=O)CN2CCN(C(=O)c3ccccc3)CC2)cc(C)c1OCCCN1CCC[C@H]1C")
"101 to 500 nM"
>>> reported("C[C@@H]1CCCN1CCCOc1ccc(C(=O)CN2CCN(C(=O)C3CCCO3)CC2)cc1 (stereo partly drawn)")
"0.1 to 100 nM"
>>> reported("COC(=O)N1CCN(CC(=O)c2ccc(OCCCN3CCC[C@H]3C)c(F)c2)CC1")
"0.1 to 100 nM"
>>> reported("C[C@@H]1CCCN1CCCOc1ccc(C(=O)CN2CCN(S(=O)(=O)c3ccccc3)CC2)cc1")
"0.1 to 100 nM"
>>> reported("O=C(CN1CCOCC1)c1ccc(OCCCN2CCCCC2)cc1")
"101 to 500 nM"
>>> reported("C[C@@H]1CCCN1CCCOc1ccc(C(=O)CN2CCNC(=O)C2)cc1")
"0.1 to 100 nM"
>>> reported("C[C@@H]1CCCN1CCCOc1ccc(C(=O)CN2CCCCC2=O)cc1")
"101 to 500 nM"
>>> reported("CCOC(=O)N1CCN(CC(=O)c2ccc(OCCCN3CCC[C@H]3C)cc2)CC1")
"0.1 to 100 nM"
>>> reported("COC[C@@H]1CCCN1CCCOc1ccc(C(=O)CN2CCOCC2)cc1")
"> 1000 nM"
>>> reported("C[C@@H]1CCCN1CCCOc1ccc(C(=O)CN2CCCC2=O)cc1")
"101 to 500 nM"
>>> reported("C[C@@H]1CCCN1CCCOc1ccc(C(=O)CN2CCN(C(=O)c3ccc(Cl)cc3)CC2)cc1")
"0.1 to 100 nM"
>>> reported("C[C@@H]1CCCN1CCCOc1c(Cl)cc(C(=O)CN2CCN(C(=O)C3CCCCC3)CC2)cc1Cl")
"101 to 500 nM"
>>> reported("CC(=O)N1CCN(CC(=O)c2ccc(OCCCN3CCC[C@H]3C)c(Cl)c2)CC1")
"0.1 to 100 nM"
>>> reported("C[C@@H]1CCCN1CCCOc1ccc(C(=O)CN2CCN(C(=O)c3ccccc3-c3ccccc3)CC2)cc1")
"0.1 to 100 nM"
>>> reported("C[C@@H]1CCCN1CCCOc1ccc(C(=O)CN2CCN(C(=O)N3CCCC3)CC2)cc1")
"0.1 to 100 nM"
>>> reported("C[C@@H]1CCCN1CCCOc1cccc(C(=O)CN2CCC(F)(F)CC2)c1")
"101 to 500 nM"
>>> reported("C[C@@H]1CCCN1CCCOc1ccc(C(=O)CN2CCCCc3ccccc32)cc1")
"0.1 to 100 nM"
>>> reported("C[C@@H]1CCCN1CCCOc1ccc(C(=O)CN2CCN(C(=O)c3ccc(C(F)(F)F)cc3)CC2)cc1")
"0.1 to 100 nM"
>>> reported("C[C@@H]1CCCN1CCCOc1ccc(C(=O)CN2CCN(C(=O)c3ccc4ccccc4n3)CC2)cc1")
"0.1 to 100 nM"
>>> reported("CS(=O)(=O)N1CCN(CCCOc2ccc(C(=O)CN3CCOCC3)cc2)CC1")
"> 1000 nM"
>>> reported("C[C@@H]1CCCN1CCCOc1c(Cl)cc(C(=O)CN2CCN(c3ncccn3)CC2)cc1Cl")
"101 to 500 nM"
>>> reported("C[C@@H]1CCCN1CCCOc1ccc(C(=O)CN2Cc3ccc(F)cc3C2)cc1")
"0.1 to 100 nM"
>>> reported("CC(=O)N1CCN(CC(=O)c2ccc(OCCCN3CCC[C@H]3C)cc2)CC1")
"0.1 to 100 nM"
>>> reported("C[C@@H]1CCCN1CCCOc1ccc(C(=O)CN2CCN(c3ccccc3)CC2)cc1F")
"0.1 to 100 nM"
>>> reported("C[C@@H]1CCCN1CCCOc1ccc(C(=O)CN2CCN(C(=O)c3ccc(F)cc3F)CC2)cc1")
"0.1 to 100 nM"
>>> reported("COc1cc(C(=O)CN2CCN(C(=O)c3ccccc3)CC2)ccc1OCCCN1CCC[C@H]1C")
"> 1000 nM"
>>> reported("C[C@@H]1CCCN1CCCOc1ccc(C(=O)CN2CCN(C(=O)c3ccccc3)CC2)c(F)c1")
"0.1 to 100 nM"
>>> reported("C[C@@H]1CCCN1CCCOc1ccc(C(=O)CN2CCCC(F)(F)C2)cc1")
"0.1 to 100 nM"
>>> reported("C[C@@H]1CCCN1CCCOc1ccc(C(=O)CN2CCN(C(=O)c3cccc(Cl)c3Cl)CC2)cc1")
"0.1 to 100 nM"
>>> reported("C[C@@H]1CCCN1CCCOc1ccc(C(=O)CN2CCN(C(=O)c3cc4ccccc4s3)CC2)cc1")
"0.1 to 100 nM"
>>> reported("C[C@@H]1CCCN1CCCOc1ccc(C(=O)CN2CCC(F)(F)C2)cc1")
"0.1 to 100 nM"
>>> reported("C[C@@H]1CCCN1CCCOc1c(Cl)cc(C(=O)CN2CCN(c3ccccc3)CC2)cc1Cl")
"> 1000 nM"

----------
assay endpoint: melting point

>>> reported("CS(=O)(=O)N1CCN(CCCOc2ccc(C(=O)CN3CCOCC3)cc2)CC1 [Example 59]")
"246 to 248 °C"
>>> reported("O=C(CN1CCOCC1)c1ccc(OCCCN2Cc3ccccc3C2)cc1 [Example 46]")
"139 to 139.5 °C"
>>> reported("O=C(CN1CCOCC1)c1ccc(OCCCN2CCN3CCCCC3C2)cc1 (stereo not drawn) [Example 62]")
"251 °C"

----------
Biological target: human H3 receptor (Homo sapiens, UniProt Q9Y5N1)
Sequence (Q9Y5N1 whole entry): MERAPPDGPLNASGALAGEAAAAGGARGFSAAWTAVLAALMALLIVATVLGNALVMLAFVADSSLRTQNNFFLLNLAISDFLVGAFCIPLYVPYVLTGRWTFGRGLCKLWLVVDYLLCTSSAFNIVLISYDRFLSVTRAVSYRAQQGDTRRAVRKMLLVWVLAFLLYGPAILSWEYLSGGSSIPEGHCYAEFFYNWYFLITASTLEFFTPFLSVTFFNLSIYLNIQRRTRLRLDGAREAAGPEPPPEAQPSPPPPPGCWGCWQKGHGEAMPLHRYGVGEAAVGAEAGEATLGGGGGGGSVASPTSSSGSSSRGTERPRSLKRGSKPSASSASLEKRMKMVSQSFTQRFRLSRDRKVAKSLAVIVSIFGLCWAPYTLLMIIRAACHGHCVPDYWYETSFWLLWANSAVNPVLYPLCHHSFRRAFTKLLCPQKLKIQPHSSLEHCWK
assay endpoint: Ki

>>> reported("C[C@@H]1CCCN1CCCOc1ccc(C(=O)CN2CCN(C(=O)c3cccs3)CC2)cc1")
"0.1 to 100 nM"
>>> reported("C[C@@H]1CCCN1CCCOc1c(Cl)cc(C(=O)CN2CCC(F)(F)CC2)cc1Cl")
"0.1 to 100 nM"
>>> reported("CC1CCCC(C)N1CCCOc1ccc(C(=O)CN2CCCCC2)cc1 (centres unmarked)")
"0.1 to 100 nM"
>>> reported("CC(=O)N1CCN(CC(=O)c2ccc(OCCCN3CCC[C@H]3C)cc2)CC1")
"0.1 to 100 nM"
>>> reported("CC(C(=O)c1ccc(OCCCN2CCCC2)cc1)N1CCCC1 (centres unmarked)")
"0.1 to 100 nM"
>>> reported("C[C@@H]1CCCN1CCCOc1ccc(C(=O)CN2CCN(C(=O)c3ccc(Cl)c(Cl)c3)CC2)cc1")
"0.1 to 100 nM"
>>> reported("C[C@@H]1CCCN1CCCOc1ccc(C(=O)C(C)(C)N2CCOCC2)cc1")
"0.1 to 100 nM"
>>> reported("C[C@@H]1CCCN1CCCOc1ccc(C(=O)CN2CCN(S(=O)(=O)c3ccccc3)CC2)cc1")
"0.1 to 100 nM"

----------
assay endpoint: melting point

>>> reported("COC(=O)N1CCN(CC(=O)c2ccc(OCCCN3CCC[C@H]3C)c(Cl)c2)CC1")
"122 to 124 °C"
>>> reported("CC(C)N1CCC(Oc2ccc(C(=O)CN3CCCC(F)(F)C3)cc2)CC1")
"160 to 165 °C (dec.)"
>>> reported("C[C@@H]1CCCN1CCCOc1ccc(C(=O)CN2CCN(C(=O)OCc3ccccc3)CC2)cc1")
"183 to 188 °C"
>>> reported("COC[C@@H]1CCCN1CCCOc1ccc(C(=O)CN2CCOCC2)cc1")
"74 to 76 °C"
>>> reported("O=C(CN1CCC(F)(F)CC1)c1ccc(OCCCN2CCCCC2)c(Cl)c1")
"122 to 135 °C"
>>> reported("Cc1cc(C(=O)CN2CCNC(=O)C2)ccc1OCCCN1CCC[C@H]1C")
"79 to 85 °C"
>>> reported("C[C@@H]1CCCN1CCCOc1cccc(C(=O)CN2CCN(C(=O)c3ccccc3)CC2)c1")
"125 to 135 °C"
>>> reported("C[C@@H]1CCCN1CCCOc1ccc(C(=O)CN2CCN(C(=O)C3CCCCC3)CC2)cc1F")
"232 °C"
